Value source: the supplement of paper PMC10567573

B1: TBX5 (parent)
chain: YQNHKITQLKIENNPFAKGFRGSD

variants of: B1; assay: protein stability index of a GFP-peptide fusion (GPS, HEK-293T) (PSI 1-6); higher = more stable; conditions: c terminus: a fixed tail appended;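 also: lentivirally expressed fusions sorted by FACS into six bins by GFP to DsRed ratio, PSI derived from sequencing read proportions per bin multiplied by bin number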
# binarize protein stability index: threshold 3 inclusive, high side Yes, low side No

>>> assigned_label("YQNHWITQLKIENNPFAKGFRGSD [K5W]")
"No"
>>> assigned_label("YQNHKITQLKIENNPFAKGNRGSD [F20N]")
"Yes"
>>> assigned_label("YQVHKITQLKIENNPFAKGFRGSD [N3V]")
"No"
>>> assigned_label("YQNHKITQLKIENNPLAKGFRGSD [F16L]")
"No"
>>> assigned_label("YQNHKITQLKIENNPFAHGFRGSD [K18H]")
"No"
>>> assigned_label("YQKHKITQLKIENNPFAKGFRGSD [N3K]")
"No"
>>> assigned_label("YQMHKITQLKIENNPFAKGFRGSD [N3M]")
"No"
>>> assigned_label("YQNHKITQLKINNNPFAKGFRGSD [E12N]")
"No"
>>> assigned_label("YQNHKITQLKIENNPFAKGFPGSD [R21P]")
"No"
>>> assigned_label("YQNHKITQLKITNNPFAKGFRGSD [E12T]")
"No"
>>> assigned_label("YQNHKITQLKIENNPFAKGFRGDD [S23D]")
"No"
>>> assigned_label("YQNHKITQLKIEWNPFAKGFRGSD [N13W]")
"No"
>>> assigned_label("YQNHKITQLKIENNPFAKTFRGSD [G19T]")
"No"
>>> assigned_label("YQNHKKTQLKIENNPFAKGFRGSD [I6K]")
"Yes"
>>> assigned_label("YQNHKITQLSIENNPFAKGFRGSD [K10S]")
"No"
>>> assigned_label("YQNHKITQLKIENNPFQKGFRGSD [A17Q]")
"No"
>>> assigned_label("YQNHYITQLKIENNPFAKGFRGSD [K5Y]")
"No"
>>> assigned_label("YQNFKITQLKIENNPFAKGFRGSD [H4F]")
"No"
>>> assigned_label("YQNHKITQLKIENNPFASGFRGSD [K18S]")
"No"
>>> assigned_label("PQNHKITQLKIENNPFAKGFRGSD [Y1P]")
"Yes"
>>> assigned_label("YQNHKITQLKIENNMFAKGFRGSD [P15M]")
"No"
>>> assigned_label("YQNHKITQGKIENNPFAKGFRGSD [L9G]")
"No"
>>> assigned_label("YQNAKITQLKIENNPFAKGFRGSD [H4A]")
"No"
>>> assigned_label("YQNHKITQLKILNNPFAKGFRGSD [E12L]")
"No"
>>> assigned_label("YQNHKITQLKIENNPFAKGSRGSD [F20S]")
"Yes"
>>> assigned_label("YQNHKITQLKIENNPFAKGFRISD [G22I]")
"No"
>>> assigned_label("YQNHKITQDKIENNPFAKGFRGSD [L9D]")
"Yes"
>>> assigned_label("YQNHKITQLKIENNEFAKGFRGSD [P15E]")
"No"
>>> assigned_label("VQNHKITQLKIENNPFAKGFRGSD [Y1V]")
"Yes"
>>> assigned_label("YQNHKITQLKIENNPFKKGFRGSD [A17K]")
"No"
>>> assigned_label("YQNHKITQLKIENNPFCKGFRGSD [A17C]")
"No"
>>> assigned_label("YSNHKITQLKIENNPFAKGFRGSD [Q2S]")
"Yes"
>>> assigned_label("YQNHKIPQLKIENNPFAKGFRGSD [T7P]")
"No"
>>> assigned_label("YQNHKITQLKIENNPFAKWFRGSD [G19W]")
"No"
>>> assigned_label("YQNHKITQLKIENNPFAKGFMGSD [R21M]")
"No"
>>> assigned_label("AQNHKITQLKIENNPFAKGFRGSD [Y1A]")
"Yes"
>>> assigned_label("YQNHKITQLKIENNPFAGGFRGSD [K18G]")
"No"
>>> assigned_label("YQNHKITQLKIENNKFAKGFRGSD [P15K]")
"No"
>>> assigned_label("YQNHKITQLKIENNPFAKGDRGSD [F20D]")
"Yes"
>>> assigned_label("YQNQKITQLKIENNPFAKGFRGSD [H4Q]")
"No"
>>> assigned_label("YQNHKITQLKIENNPFAKGFQGSD [R21Q]")
"No"
>>> assigned_label("YQNHKITQLKIGNNPFAKGFRGSD [E12G]")
"No"
>>> assigned_label("YRNHKITQLKIENNPFAKGFRGSD [Q2R]")
"No"
>>> assigned_label("FQNHKITQLKIENNPFAKGFRGSD [Y1F]")
"No"
>>> assigned_label("YQNHKITQLKIENNPFACGFRGSD [K18C]")
"No"
>>> assigned_label("YQNHKITQLKIENNPFAWGFRGSD [K18W]")
"No"
